Would you kindly list phosphorylation enrichment for each of these sequences?
- tgt: EPHB2 (UniProt P29323)
- Sequence (P29323 whole entry, looked up): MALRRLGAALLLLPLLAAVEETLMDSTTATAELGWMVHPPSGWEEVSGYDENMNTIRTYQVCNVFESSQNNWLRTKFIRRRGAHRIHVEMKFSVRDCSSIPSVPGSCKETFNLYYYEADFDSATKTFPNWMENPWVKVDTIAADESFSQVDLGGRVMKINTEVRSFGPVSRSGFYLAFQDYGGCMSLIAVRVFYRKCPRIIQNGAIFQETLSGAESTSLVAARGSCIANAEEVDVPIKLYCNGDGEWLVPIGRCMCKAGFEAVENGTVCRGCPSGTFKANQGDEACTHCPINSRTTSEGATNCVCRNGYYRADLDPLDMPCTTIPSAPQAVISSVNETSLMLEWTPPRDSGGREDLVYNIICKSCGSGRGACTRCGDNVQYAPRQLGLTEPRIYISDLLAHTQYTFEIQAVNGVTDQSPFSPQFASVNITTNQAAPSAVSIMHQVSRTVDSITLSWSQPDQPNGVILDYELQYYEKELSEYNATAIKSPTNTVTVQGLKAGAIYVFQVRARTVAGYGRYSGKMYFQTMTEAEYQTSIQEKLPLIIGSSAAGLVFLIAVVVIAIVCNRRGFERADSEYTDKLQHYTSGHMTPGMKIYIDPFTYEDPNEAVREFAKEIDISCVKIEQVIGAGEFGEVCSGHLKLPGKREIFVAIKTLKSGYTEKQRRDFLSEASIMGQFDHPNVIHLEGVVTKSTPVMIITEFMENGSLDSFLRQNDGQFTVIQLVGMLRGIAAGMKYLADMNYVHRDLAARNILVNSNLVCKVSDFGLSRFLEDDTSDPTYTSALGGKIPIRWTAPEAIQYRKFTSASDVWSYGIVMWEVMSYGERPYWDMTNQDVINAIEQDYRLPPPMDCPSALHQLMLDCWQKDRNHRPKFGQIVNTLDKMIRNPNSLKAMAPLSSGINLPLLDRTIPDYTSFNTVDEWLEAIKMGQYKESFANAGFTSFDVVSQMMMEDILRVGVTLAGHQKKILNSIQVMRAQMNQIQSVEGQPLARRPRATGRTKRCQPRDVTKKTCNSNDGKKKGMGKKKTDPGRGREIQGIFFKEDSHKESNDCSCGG
- test.summary: phosphorylation enrichment, bacterial display (enrichment ratio); higher = better substrate or ligand; peptides without Tyr show the background;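 also: 11-residue human phosphosite peptides and single-mutation variants displayed on the E. coli surface, counted by deep sequencing, each peptide's frequency after selection divided by its frequency in the unselected input library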;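 also: frequency after pTyr selection over input frequency; kinase dosed for 20-30% of maximal phosphorylation in three min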
// keep it numeric: no unit symbol after the value

QUERY: phosphorylation enrichment for IVFTSYVLTIL [TAS2R16_Y239_F240V] ?
RESULT: 0.794

QUERY: Input ETKGDYEKILV [ANXA1_Y335]
RESULT: 0.625

QUERY: Input AVISVYDLVAV [PSEN1_Y256]
RESULT: 4.92

QUERY: Input VRFVDYVLFRS [FAM189B_Y361_S358F]
RESULT: 0.919

QUERY: Input CTTIHYSYMCN [TP53_Y234_N235S]
RESULT: 0.628

QUERY: Input FQQLFYLLQIN [IQGAP2_Y890_T894I_YF]
RESULT: 0.815

QUERY: Input VDLSKCITTIA [FAS_Y232_Y232C]
RESULT: 0.533
